Listed compounds paired with reported IC50
assayed.target: MNK2 (Homo sapiens)
Construct: the open reading frames of human Mnk1 and Mnk2a were amplified from cDNA
test.summary: Mnk2a in vitro kinase assay (indirect fluorescence polarization)
condition.info: pre-activated GST-Mnk2a 2.5 nM, 20 μM ATP, 30 μM substrate peptide
endpoint.label: IC50

>>> experimental_value("CC(=O)N(C)[C@@H]1CCCC[C@H]1Oc1cc(F)ccc1Nc1ncnc2sc(C(N)=O)c(C)c12 (racemic)")
"1.6 µM"
>>> experimental_value("Cc1c(C(=O)NCCN2CCCCC2)sc2ncnc(Nc3ccc(F)cc3O[C@H]3CC[C@H](O)CC3)c12")
"0.019 µM"
>>> experimental_value("Cc1c(C(=O)NCC#CCN(C)C)sc2ncnc(Nc3ccc(F)cc3O[C@@H]3CCC[C@@H](O)C3)c12 (racemic)")
"0.016 µM"
>>> experimental_value("CO[C@@H]1CCC[C@@H](Oc2cc(F)ccc2Nc2ncnc3sc(C(N)=O)c(C)c23)C1 (racemic)")
"0.015 µM"
>>> experimental_value("Cc1c(C(N)=O)sc2ncnc(Nc3ccc(F)cc3O[C@@H]3CCC[C@H](O)C3)c12 (racemic)")
"0.007 µM"
>>> experimental_value("COC(=O)c1sc2ncnc(Nc3ccc(F)cc3OC3CCC(=O)CC3)c2c1C")
"0.36 µM"
>>> experimental_value("COC(=O)c1sc2ncnc(Nc3ccc(F)cc3O[C@@H]3CCCC[C@H]3OC)c2c1C")
"0.139 µM"

----------
assayed.target: MNK2 (Homo sapiens, UniProt Q9HBH9)
Construct: the open reading frames of human Mnk1 and Mnk2a were amplified from cDNA
Sequence (Q9HBH9 whole entry): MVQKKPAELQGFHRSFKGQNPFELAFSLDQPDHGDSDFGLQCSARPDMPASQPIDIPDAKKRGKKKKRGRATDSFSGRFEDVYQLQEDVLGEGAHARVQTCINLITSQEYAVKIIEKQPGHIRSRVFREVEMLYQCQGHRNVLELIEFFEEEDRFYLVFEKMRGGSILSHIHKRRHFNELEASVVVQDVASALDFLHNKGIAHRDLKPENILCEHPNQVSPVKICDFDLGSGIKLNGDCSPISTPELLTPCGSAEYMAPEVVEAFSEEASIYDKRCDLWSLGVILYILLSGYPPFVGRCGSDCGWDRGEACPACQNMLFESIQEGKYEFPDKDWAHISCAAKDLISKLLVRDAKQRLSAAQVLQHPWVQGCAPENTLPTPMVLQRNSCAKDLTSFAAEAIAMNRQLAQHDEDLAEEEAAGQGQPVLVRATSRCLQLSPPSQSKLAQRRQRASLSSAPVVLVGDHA
test.summary: Mnk2a in vitro kinase assay (indirect fluorescence polarization)
condition.info: pre-activated GST-Mnk2a 2.5 nM, 20 μM ATP, 30 μM substrate peptide
pIC50: −log10 of the molar value.
endpoint.label: pIC50

>>> experimental_value("Cc1c(C(=O)NCCCn2ccnc2)sc2ncnc(Nc3ccc(F)cc3O[C@H]3CC[C@H](O)CC3)c12")
7.89
>>> experimental_value("Cc1c(C(=O)NCCCN(C)C)sc2ncnc(Nc3ccc(F)cc3OC3CCC(C)(C)CC3)c12")
7.44
>>> experimental_value("COC(=O)N[C@H]1CCC[C@@H]1Oc1cc(F)ccc1Nc1ncnc2sc(C(N)=O)c(C)c12")
6.74
>>> experimental_value("CO[C@H]1CC[C@H](Oc2cc(F)ccc2Nc2ncnc3sc(C(=O)NCC#N)c(C)c23)CC1")
7.82

----------
assayed.target: MNK2 (Homo sapiens)
Construct: the open reading frames of human Mnk1 and Mnk2a were amplified from cDNA
test.summary: Mnk2a in vitro kinase assay (indirect fluorescence polarization)
condition.info: pre-activated GST-Mnk2a 2.5 nM, 20 μM ATP, 30 μM substrate peptide
pIC50: −log10 of the molar value.
endpoint.label: pIC50

>>> experimental_value("Cc1c(C(N)=O)sc2ncnc(Nc3ccc(F)cc3O[C@@H]3C[C@@H]4OCO[C@@H]4C3)c12")
7.42
>>> experimental_value("CNC(=O)CNC(=O)c1sc2ncnc(Nc3ccc(F)cc3O[C@H]3CC[C@H](O)CC3)c2c1C")
7.80
>>> experimental_value("Cc1c(C(=O)NCC#N)sc2ncnc(Nc3ccc(F)cc3O[C@@H]3CCC[C@@H](O)C3)c12 (racemic)")
7.85
>>> experimental_value("CC(=O)N[C@H]1CC[C@H](Oc2cc(F)ccc2Nc2ncnc3sc(C(=O)N[C@@H]4C[C@H]4NC(=O)OC(C)(C)C)c(C)c23)C1")
8.22

----------
assayed.target: MNK2 (Homo sapiens)
Construct: the open reading frames of human Mnk1 and Mnk2a were amplified from cDNA
test.summary: Mnk2a in vitro kinase assay (indirect fluorescence polarization)
condition.info: pre-activated GST-Mnk2a 2.5 nM, 20 μM ATP, 30 μM substrate peptide
pIC50: −log10 of the molar value.
endpoint.label: pIC50

>>> experimental_value("Cc1c(C(N)=O)sc2ncnc(Nc3ccc(F)cc3O[C@H]3CC[C@H](N4CCOCC4)CC3)c12")
7.09
>>> experimental_value("CO[C@H]1CC[C@H](Oc2cc(F)ccc2Nc2ncnc3sc(C(=O)NCC#CCN(C)C)c(C)c23)CC1")
7.68
>>> experimental_value("CC(=O)N[C@H]1CC[C@H](Oc2cc(F)ccc2Nc2ncnc3sc(C(=O)NC4CCN(C)CC4)c(C)c23)C1")
7.49
>>> experimental_value("CO[C@H]1CCC[C@@H](Oc2ncccc2Nc2ncnc3sc(C(=O)NCC#CCN)c(C)c23)C1 (racemic)")
7.89
>>> experimental_value("CO[C@@H]1CCC[C@@H](Oc2cc(F)ccc2Nc2ncnc3sc(C(=O)NCCCN(C)C)c(C)c23)C1 (racemic)")
7.21
>>> experimental_value("Cc1c(C(N)=O)sc2ncnc(Nc3cccnc3O[C@H]3CC[C@H](N)CC3)c12")
8.22
>>> experimental_value("Cc1c(C(=O)NCCCN(C)C)sc2ncnc(Nc3ccc(F)cc3OC3CCC(F)(F)CC3)c12")
7.55
>>> experimental_value("CO[C@H]1CC[C@H](Oc2cc(F)ccc2Nc2ncnc3sc(C(=O)NCc4cnco4)c(C)c23)CC1")
7.77
>>> experimental_value("CO[C@H]1CC[C@H](Oc2cc(F)ccc2Nc2ncnc3sc(C(=O)NCC4CN(C)CCO4)c(C)c23)CC1 (stereo partly shown)")
7.82
>>> experimental_value("CCNC(=O)c1sc2ncnc(Nc3ccc(F)cc3O[C@@H]3CCC[C@H](OC)C3)c2c1C (racemic)")
7.62
>>> experimental_value("CO[C@@H]1CCC[C@@H](Oc2ncccc2Nc2ncnc3sc(C(=O)NCCCO)c(C)c23)C1 (racemic)")
7.08
>>> experimental_value("CO[C@H]1CCCC[C@H]1Oc1cc(F)ccc1Nc1ncnc2sc(C(N)=O)c(C)c12 (racemic)")
7.23
>>> experimental_value("Cc1c(C(=O)NCC2CNCCO2)sc2ncnc(Nc3ccc(F)cc3O[C@H]3CC[C@H](O)CC3)c12 (stereo partly shown)")
7.96
